# studySystem: T1, CRBN, Q96SW2;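 also: pooled lentiviral library of zinc finger degron-EGFP fusions in mCherry-positive Jurkat cells, FACS-sorted after compound exposure, with degron abundance counted by next-generation sequencing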
# T1 chain: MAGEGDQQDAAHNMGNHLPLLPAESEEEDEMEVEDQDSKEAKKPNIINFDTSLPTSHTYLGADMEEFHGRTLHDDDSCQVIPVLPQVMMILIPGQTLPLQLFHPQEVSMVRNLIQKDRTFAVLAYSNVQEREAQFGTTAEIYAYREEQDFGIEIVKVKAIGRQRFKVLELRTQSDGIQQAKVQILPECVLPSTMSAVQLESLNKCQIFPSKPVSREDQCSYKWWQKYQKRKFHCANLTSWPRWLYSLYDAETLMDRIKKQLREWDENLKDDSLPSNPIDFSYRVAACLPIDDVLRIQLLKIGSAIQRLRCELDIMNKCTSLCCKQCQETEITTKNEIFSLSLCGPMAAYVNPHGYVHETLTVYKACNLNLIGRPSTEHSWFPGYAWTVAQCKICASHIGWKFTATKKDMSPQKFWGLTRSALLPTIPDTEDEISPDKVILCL
# assayRemarks: log2 fold change of degron read counts, EGFP-low vs EGFP+ sorted cells (limma voom), compound-induced degradation; higher = more compound-induced degradation of the degron-EGFP fusion; degrons are variants of IKZF1/3 zinc finger 2; compound dose not given here
# studyConditions: Jurkat; 18 h; compound: compound 19 (5-tert-butyl-thalidomide)
The full ranking holds about 8,300 sequences; the median of “log2 fold change of degron read counts, EGFP-low vs EGFP+ sorted cells (limma voom), compound-induced degradation” is about -1.1, and the highest 2% start at about 3.2. This excerpt belongs to a sample that is enriched for the highest values.
Examples of sequences with documented log2 fold change of degron read counts follow.
Number only, no unit.

Recorded results for 6 sequences are shown here.
For the sequence LECEICGFACTQKGNLLRHIKL [46L_47E_49E_50I_52G_53F_54A_55C_67L_, Q9UKT9] , report log2 fold change of degron read counts.
0.666

Fill in reported log2 fold change of degron read counts for this entry: LACNQCGFECTQKGNLLRHIKL [46L_47A_49N_50Q_52G_53F_54E_55C_67L_, Q9UKT9]
-2.6

Assign log2 fold change of degron read counts to the following record: LGCEICGFACTQKGNLLRHIKL [46L_47G_49E_50I_52G_53F_54A_55C_67L_, Q9UKT9]
0.464

Return value of log2 fold change of degron read counts for input FECNICGASFTQKGNLLRHIKL [46F_47E_49N_50I_52G_53A_54S_55F_67L_, Q9UKT9] , no commentary.
-0.173

// Input: FECPICGASFTQKGNLLRHIKL [46F_47E_49P_50I_52G_53A_54S_55F_67L_, Q9UKT9] . Output its log2 fold change of degron read counts only.
2.15

Kindly indicate its recorded log2 fold change of degron read counts. Item: FMCPICGASFTQKGNLLRHIKL [46F_47M_49P_50I_52G_53A_54S_55F_67L_, Q9UKT9]
1.54

From here, focus on the item given below.
Using known records, supply log2 fold change of degron read counts for FSCPICGASFTQKGNLLRHIKL [46F_47S_49P_50I_52G_53A_54S_55F_67L_, Q9UKT9]
3.35
